- Test system: 156681-154-R-J1 tumor spheroid viability;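 note: spheroids exposed to compounds for 7 days before readout; percent of vehicle control viability where 100% = DMSO-treated spheroids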
- ASSAY NAME: Anticancer human tumor 156681-154-R-J1 patient-derived melanoma cell line growth inhibition
- MEASUREMENT CONDITIONS: second compound 0.0003 µM; first compound 0.0949 µM; hits give low values; spheroids with HUVEC and MSC
MEASUREMENT TYPE: viability, T/C (%)
Write the answer as a number in %, unit excluded.

A selection of reference data follows.
{"columns": ["COMPOUND", "UNIT TEXT", "READOUT VALUE"],
 "data": [
  ["Cn1ncnc1[C@H]1c2n[nH]c(=O)c3cc(F)cc(c23)N[C@@H]1c1ccc(F)cc1 + COc1cc2c(cc1O)CCNC21CSC2c3c(OC(C)=O)c(C)c4c(c3C(COC1=O)N1C(O)C3Cc5cc(C)c(OC)c(O)c5C(C21)N3C)OCO4", "%", 51],
  ["Cc1sc2c(c1C)C(c1ccc(Cl)cc1)=NC(CC(=O)Nc1ccc(O)cc1)c1nnc(C)n1-2 (centres undefined) + COc1cc2c(cc1O)CCNC21CSC2c3c(OC(C)=O)c(C)c4c(c3C(COC1=O)N1C(O)C3Cc5cc(C)c(OC)c(O)c5C(C21)N3C)OCO4", "%", 64.9],
  ["CNCc1ccc(-c2cc(-c3nc(-c4ccc(S(=O)(=O)C(C)C)cc4)cnc3N)on2)cc1 + COc1cc2c(cc1O)CCNC21CSC2c3c(OC(C)=O)c(C)c4c(c3C(COC1=O)N1C(O)C3Cc5cc(C)c(OC)c(O)c5C(C21)N3C)OCO4", "%", 90.4]
]}

Here is another compound to look at.
Answer with reported viability, T/C of O=C(c1cc(Cc2n[nH]c(=O)c3ccccc23)ccc1F)N1CCN(C(=O)C2CC2)CC1 + COc1cc2c(cc1O)CCNC21CSC2c3c(OC(C)=O)c(C)c4c(c3C(COC1=O)N1C(O)C3Cc5cc(C)c(OC)c(O)c5C(C21)N3C)OCO4 69.8
